Assay: Open-label sequential drug-drug interaction study: plasma pharmacokinetics of deutetrabenazine and its metabolites without and with steady-state paroxetine
Details: human, in vivo

[
  {
    "molecule": "COc1cc2c(cc1O)CCN1C[C@@H](CC(C)C)[C@@H](O)C[C@H]21 [9-O-desmethyl β-HTBZ]",
    "Cmax": "4.5 (20) ng/mL"
  },
  {
    "molecule": "COc1cc2c(cc1OC)[C@@H]1C[C@H](O)[C@@H](CC(C)C)CN1CC2 [α-HTBZ]",
    "Cmax": "35.8 (21) ng/mL"
  },
  {
    "molecule": "COc1cc2c(cc1O)CCN1C[C@@H](CC(C)C)[C@H](O)C[C@H]21 [9-O-desmethyl α-HTBZ]",
    "Cmax": "1.4 (18) ng/mL"
  },
  {
    "molecule": "[2H]C([2H])([2H])Oc1cc2c(cc1OC([2H])([2H])[2H])C1CC(=O)C(CC(C)C)CN1CC2 (centres unmarked) [Deutetrabenazine]",
    "Cmax": "0.3 (44) ng/mL"
  },
  {
    "molecule": "COc1cc2c(cc1OC)[C@H]1C[C@H](O)[C@H](CC(C)C)CN1CC2 [β-HTBZ]",
    "Cmax": "20.4 (33) ng/mL"
  }
]

---

Entries annotated with measured Cmax
Assay: Open-label sequential drug-drug interaction study: plasma pharmacokinetics of deutetrabenazine and its metabolites without and with steady-state paroxetine
Conditions: human, in vivo, po, 22.5 mg

[
  {
    "compound": "COc1cc2c(cc1OC)[C@@H]1C[C@H](O)[C@@H](CC(C)C)CN1CC2",
    "Cmax": "37.4 (22) ng/mL"
  },
  {
    "compound": "[2H]C([2H])([2H])Oc1cc2c(cc1OC([2H])([2H])[2H])C1CC(=O)C(CC(C)C)CN1CC2 (centres unmarked)",
    "Cmax": "0.4 (60) ng/mL"
  },
  {
    "compound": "COc1cc2c(cc1O)CCN1C[C@@H](CC(C)C)[C@@H](O)C[C@H]21",
    "Cmax": "4.4 (29) ng/mL"
  },
  {
    "compound": "COc1cc2c(cc1O)CCN1C[C@@H](CC(C)C)[C@H](O)C[C@H]21",
    "Cmax": "1.3 (28) ng/mL"
  },
  {
    "compound": "COc1cc2c(cc1OC)[C@H]1C[C@H](O)[C@H](CC(C)C)CN1CC2",
    "Cmax": "24.6 (38) ng/mL"
  }
]

---

Entries annotated with measured Tmax
Test: Open-label sequential drug-drug interaction study: plasma pharmacokinetics of deutetrabenazine and its metabolites without and with steady-state paroxetine
Conditions: human, in vivo, im
value.kind: Tmax

[
  {
    "compound": "COc1cc2c(cc1O)CCN1C[C@@H](CC(C)C)[C@@H](O)C[C@H]21",
    "value.kind": "Tmax",
    "result": "7.0 (4.0–24.0) h"
  },
  {
    "compound": "COc1cc2c(cc1O)CCN1C[C@@H](CC(C)C)[C@H](O)C[C@H]21",
    "value.kind": "Tmax",
    "result": "5.5 (3.5–12.0) h"
  },
  {
    "compound": "COc1cc2c(cc1OC)[C@H]1C[C@H](O)[C@H](CC(C)C)CN1CC2",
    "value.kind": "Tmax",
    "result": "4.0 (2.0–8.0) h"
  },
  {
    "compound": "COc1cc2c(cc1OC)[C@@H]1C[C@H](O)[C@@H](CC(C)C)CN1CC2",
    "value.kind": "Tmax",
    "result": "4.0 (2.0–7.0) h"
  },
  {
    "compound": "[2H]C([2H])([2H])Oc1cc2c(cc1OC([2H])([2H])[2H])C1CC(=O)C(CC(C)C)CN1CC2 (centres unmarked)",
    "value.kind": "Tmax",
    "result": "3.5 (1.0–6.0) h"
  }
]
